- Test system: HT29 colon
- procedure text: NCI tumour cell line growth inhibition, 48 h
observable: TGI

INSERT INTO results (compound, observable, value_measured) VALUES
  ('O=C(NNc1cn[nH]c(=O)c1Cl)/C(=C/c1ccc2c(c1)OCO2)NC(=O)c1ccccc1', 'TGI', '> 100 µM'),
  ('COc1ccc(C[C@H](N)C(=O)N2C[C@H](CO)C[C@H](n3ccc(=O)[nH]c3=O)C2)cc1', 'TGI', '> 100 µM'),
  ('Cc1cn(CC2=NCCCN2)c(=O)[nH]c1=O', 'TGI', '> 100 µM'),
  ('CCON=C1C(C)(C)C(C)(C)C(C)(C)C1(C)C', 'TGI', '> 100 µM'),
  ('CC(C)[C@H]1NC(=O)[C@H]2N=C(O[C@@H]2C)[C@@H]2CCCN2C(=O)[C@H](Cc2ccccc2)NC(=O)[C@@H]2CSC(=N2)[C@@H](Cc2ccccc2)NC(=O)[C@@H]2CSC1=N2', 'TGI', '> 100 µM'),
  ('CC1=C(SCc2ccccc2)C(=O)c2ccccc2C1=O', 'TGI', '90.2 µM'),
  ('CC1=C(C)CC2(SC1)C(=O)c1ccccc1C2=O', 'TGI', '> 100 µM'),
  ('O=C1c2ccccc2C(=O)c2c1ccc1c2N=C(c2ccc(F)cc2)CC(c2ccc(Cl)c(Cl)c2)N1 (stereo unspecified)', 'TGI', '26.3 µM'),
  ('O=C(/C=C/c1ccc(-c2ccccc2)cc1)NCc1ccc(C(=O)NCCc2c[nH]c3ccccc23)cc1', 'TGI', '29.3 µM'),
  ('CCc1nn(S(=O)(=O)c2ccc(C)cc2)c2c1CS(=O)(=O)CC2', 'TGI', '> 100 µM'),
  ('CC1(C)CN(c2ccccc2)C(=O)C1OC(=O)[C@@]1(C)C[C@@H]2C=C[C@H]1C2 (stereo partly specified)', 'TGI', '28.8 µM'),
  ('CCN(CC)c1ccc(N=C2C=C(C(=O)Nc3ccc(S(C)(=O)=O)cc3)C(=O)c3ccccc32)c(C)c1', 'TGI', '> 100 µM'),
  ('Nc1ccccc1NC(=O)CCCCCCC(=O)Nc1ccc2c(c1)/C(=C/c1ccc[nH]1)C(=O)N2', 'TGI', '> 100 µM'),
  ('CN(C)C(=S)NN=C(c1ccccn1)c1ccccn1', 'TGI', '> 100 µM'),
  ('Cc1ccc(C(=O)O/N=C2/CCCCC2CN(C)C)cc1 (stereo unspecified)', 'TGI', '> 100 µM'),
  ('Nc1ccc(-c2nc3ccccc3[nH]2)c(O)c1', 'TGI', '> 100 µM'),
  ('CSc1nc(NC2OCC(O)C(O)C2O)c(N)c(=O)n1C (stereo unspecified)', 'TGI', '> 100 µM'),
  ('CCc1ccc(-c2ccc(=O)n(-c3ccc(S(N)(=O)=O)cc3)n2)cc1', 'TGI', '> 100 µM'),
  ('Cc1ccc(S(=O)(=O)NC(=O)NCCC(=O)O)cc1', 'TGI', '> 100 µM'),
  ('NC(c1ccccc1)(C(F)(F)F)P1(=O)OC(=O)c2ccccc2O1 (stereo unspecified)', 'TGI', '> 100 µM'),
  ('C=C1C(=O)O[C@H]2C/C(C)=C/CC/C(C)=C/CC[C@@](C)(O)[C@@H](I)C[C@@H]12', 'TGI', '26.8 µM'),
  ('Cc1cc(Nc2ccc(N=Nc3ccc(O)c4ncccc34)cc2)nc(C)n1', 'TGI', '> 75.2 µM'),
  ('CCOC(=O)c1c2c(n(-c3ccc(OC)cc3)c1C)C(=O)C(=O)c1ccccc1-2', 'TGI', '> 22.7 µM'),
  ('O=C(Nc1ncc(Cc2ccccc2)s1)c1ccc2c(c1)OCCCO2', 'TGI', '> 100 µM'),
  ('COc1cc(N=Nc2ccccc2)cc(/C=N\[N-]C(N)=S)c1[O-].COc1cc(N=Nc2ccccc2)cc(/C=N\[N-]C(N)=S)c1[O-].[Fe+4]', 'TGI', '> 100 µM'),
  ('c1cc(C[S+]2CCCC2)ccc1C[S+]1CCCC1', 'TGI', '> 100 µM');
